Numbers sourced from patent US12358948B2.

- Target Entity: hNTS2 receptor (Homo sapiens, UniProt O95665)
- Construct: membranes prepared from them
- Sequence (O95665 whole entry): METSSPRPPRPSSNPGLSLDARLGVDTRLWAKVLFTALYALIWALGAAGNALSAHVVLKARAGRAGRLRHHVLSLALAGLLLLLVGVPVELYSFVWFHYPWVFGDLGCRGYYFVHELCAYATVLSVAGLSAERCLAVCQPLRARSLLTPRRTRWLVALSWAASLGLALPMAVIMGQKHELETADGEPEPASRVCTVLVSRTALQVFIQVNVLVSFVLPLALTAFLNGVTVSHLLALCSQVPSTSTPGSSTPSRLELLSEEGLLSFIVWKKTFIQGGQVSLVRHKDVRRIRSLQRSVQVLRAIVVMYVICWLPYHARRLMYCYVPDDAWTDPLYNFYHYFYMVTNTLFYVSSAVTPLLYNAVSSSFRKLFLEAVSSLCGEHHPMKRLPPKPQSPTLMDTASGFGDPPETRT
- Measurement Description: Competitive radioligand binding assay on the hNTS2 receptor
- Details: ratio IC50 for NTS1 : IC50 for NTS2
Where a SMILES comes first, the peptide text is derived from it. Bridges are numbered along the chain shown (N, C = ends). [ ]: non-standard residue; d: D form. Dip = N[C@H](C(=O)O)C(c1ccccc1)c1ccccc1; AllylGly = C=CC[C@H](N)C(=O)O
Attribute Measured: Selectivity
Answers are plain numbers.

Selectivity of CC(C)C[C@H](NC(=O)[C@@H](NC(=O)[C@@H]1CC=CC[C@H](N)C(=O)N[C@@H](CCCCN)C(=O)N[C@@H](CCCCN)C(=O)N1)C(c1ccccc1)c1ccccc1)C(=O)O [compound 140, c[G(All)KKG(All)]A (diphenyl)L] (H-[AllylGly]KK[AllylGly][Dip]L-OH; staple 1-4) on hNTS2 receptor (Homo sapiens, UniProt O95665)?
158

* * *

Give Selectivity for every item shown.
- Target Entity: hNTS2 receptor (Homo sapiens)
- Construct: membranes prepared from them
- Measurement Description: Competitive radioligand binding assay on the hNTS2 receptor
- Details: ratio IC50 for NTS1 : IC50 for NTS2
*1 amine or outer side, *2 acyl side, *3 side chain or, on linkers, in order; H or OH if unused. Where a SMILES comes first, the peptide text is derived from it. Bridges are numbered along the chain shown (N, C = ends). [ ]: non-standard residue; d: D form. ξ: configuration not given here. ξαMeNle(6-ylidene) = CC(CCCC=[*:3])(N[*:1])C(=O)[*:2]; X1 = O=C(C1C[C@@H]2CCCC[C@@H]2N1[*:1])[*:2]; Phe(4-Br) = N[C@@H](Cc1ccc(Br)cc1)C(=O)O; AllylGly = C=CC[C@H](N)C(=O)O
Numbers only.

| Compound | Selectivity |
| --- | --- |
| CC(C)C[C@H](NC(=O)C1C[C@@H]2CCCC[C@@H]2N1C(=O)[C@@H]1CC=CC[C@H](N)C(=O)N[C@@H](CCCCN)C(=O)N[C@@H](CCCCN)C(=O)N1)C(=O)O (stereo partly drawn) [compound 166, c[G(All)KKG(All)p (octahydroindol)L] (H-[AllylGly]KK[AllylGly][X1]L-OH; staple 1-4) | 3006 |

Continue with the next compound.
// returns reported Selectivity for input CC(C)C[C@H](NC(=O)[C@H](Cc1ccc(Br)cc1)NC(=O)C1(C)CCCC=CC[C@H](N)C(=O)N[C@@H](CCCCN)C(=O)N[C@@H](CCCCN)C(=O)N1)C(=O)O (stereo partly drawn) [compound 130] (H-[AllylGly]KK[ξαMeNle(6-ylidene)][Phe(4-Br)]L-OH; staple 1-4)
9843

* * *

Give IC50 for every item shown.
- Target Entity: hNTS2 receptor (Homo sapiens, UniProt O95665)
- Construct: membranes prepared from them
- Measurement Description: Competitive radioligand binding assay on the hNTS2 receptor
- Details: displacement of 125I-[Tyr3]-NT, membranes of 1321N1 cells expressing hNTS2; read-out: IC50 NTS2 (converted)
Where a SMILES comes first, the peptide text is derived from it. Bridges are numbered along the chain shown (N, C = ends). [ ]: non-standard residue; d: D form. Ala(E-styryl) = N[C@@H](C/C=C/c1ccccc1)C(=O)O; Phe(3-Br) = N[C@@H](Cc1cccc(Br)c1)C(=O)O; hTyr = N[C@@H](CCc1ccc(O)cc1)C(=O)O; dAllylGly = C=CC[C@@H](N)C(=O)O; Cit = NC(=O)NCCC[C@H](N)C(=O)O; AllylGly = C=CC[C@H](N)C(=O)O
Numbers only, in nM.

// below: answered molecules
| Molecule | Target Entity | IC50, nM |
| --- | --- | --- |
| CC(C)C[C@H](NC(=O)[C@H](Cc1ccc(O)cc1)NC(=O)[C@@H]1CC=CC[C@H](N)C(=O)N[C@@H](CCCCN)C(=O)N[C@@H](CCCNC(N)=O)C(=O)N1)C(=O)O [compound 146, c[G(All)KcitrullineG(All)]YL] (H-[AllylGly]K[Cit][AllylGly]YL-OH; staple 1-4) | hNTS2 receptor (Homo sapiens, UniProt O95665) | 698 |
| CC(C)C[C@H](NC(=O)[C@H](Cc1ccc(O)cc1)NC(=O)[C@@H]1CCC(=O)NCCCC[C@H](N)C(=O)N[C@@H](CCCCN)C(=O)N[C@@H](CCCCN)C(=O)N1)C(=O)O [compound 101, c[KKKE]YL] (H-KKKEYL-OH; lactam 1-4) | hNTS2 receptor (Homo sapiens, UniProt O95665) | 889 |
| CC(C)C[C@H](NC(=O)[C@H](Cc1cccc(Br)c1)NC(=O)[C@@H]1CC=CC[C@H](N)C(=O)N[C@@H](CCCCN)C(=O)N[C@@H](CCCCN)C(=O)N1)C(=O)O [compound 115, c[G(All)KKG(All)]F(3-bromo)L] (H-[AllylGly]KK[AllylGly][Phe(3-Br)]L-OH; staple 1-4) | hNTS2 receptor (Homo sapiens, UniProt O95665) | 28.4 |
| CC(C)C[C@H](NC(=O)[C@H](CCc1ccc(O)cc1)NC(=O)[C@@H]1CC=CC[C@H](N)C(=O)N[C@@H](CCCCN)C(=O)N[C@@H](CCCCN)C(=O)N1)C(=O)O [compound 126, c[G(All)KKG(All)]homoYL] (H-[AllylGly]KK[AllylGly][hTyr]L-OH; staple 1-4) | hNTS2 receptor (Homo sapiens, UniProt O95665) | 81.7 |
| CC(C)C[C@H](NC(=O)[C@H](Cc1c[nH]c2ccccc12)NC(=O)[C@@H]1CC=CC[C@H](N)C(=O)N[C@@H](CCCCN)C(=O)N[C@@H](CCCCN)C(=O)N1)C(=O)O [compound 16, c[G(All)KKG(All)]WL] (H-[AllylGly]KK[AllylGly]WL-OH; staple 1-4) | hNTS2 receptor (Homo sapiens, UniProt O95665) | 53.6 |

Provide IC50 values for the following items, in order.
1. CC(C)C[C@H](NC(=O)[C@H](Cc1ccc(O)cc1)NC(=O)[C@@H]1CC=CC[C@@H](N)C(=O)N[C@@H](CCCCN)C(=O)N[C@@H](CCCCN)C(=O)N1)C(=O)O [compound 41, c[G*(All)KKG(All)]YL] (H-[dAllylGly]KK[AllylGly]YL-OH; staple 1-4)
2. CC(C)C[C@H](NC(=O)[C@H](C/C=C/c1ccccc1)NC(=O)[C@@H]1CC=CC[C@H](N)C(=O)N[C@@H](CCCCN)C(=O)N[C@@H](CCCCN)C(=O)N1)C(=O)O [compound 161, c[G(All)KKG(All)]A(styryl) L] (H-[AllylGly]KK[AllylGly][Ala(E-styryl)]L-OH; staple 1-4)

1: 113; 2: 131

* * *

- Target Entity: hNTS2 receptor (Homo sapiens, UniProt O95665)
- Construct: membranes prepared from them
- Measurement Description: Competitive radioligand binding assay on the hNTS2 receptor
- Details: ratio IC50 for NTS1 : IC50 for NTS2
- Procedure: CHO-K1 (Chinese Hamster Ovary) cells stably expressing hNTS1 and 1321N1 cells stably expressing hNTS2 (ES-690-C and ES-691-C from PerkinElmer, Montréal, Canada) were cultured respectively in Ham's F12 and in DMEM culture media. […] The cells expressing hNTS1 were frozen when they reached 80% confluency. […] Glass filters were then counted using a γ-counter (2470 Wizard2, PerkinElmer, Mississauga, Ontario, Canada). […]
Where a SMILES comes first, the peptide text is derived from it. Bridges are numbered along the chain shown (N, C = ends). [ ]: non-standard residue; d: D form. ξ: configuration not given here. Ile(3ξ) = CCC(C)[C@H](N)C(=O)O; AllylGly = C=CC[C@H](N)C(=O)O
Attribute Measured: Selectivity
Numbers only.

| Compound | Measurement |
| --- | --- |
| CC(C)C[C@H](NC(=O)[C@H](Cc1c[nH]c2ccccc12)NC(=O)[C@@H]1CC=CC[C@H](N)C(=O)N[C@@H](CCCCN)C(=O)N[C@@H](CCCCN)C(=O)N1)C(=O)O [compound 16, c[G(All)KKG(All)]WL] (H-[AllylGly]KK[AllylGly]WL-OH; staple 1-4) | 1865 |

Continue with the next compound.
// returns reported Selectivity for input CCC(C)[C@H](NC(=O)[C@H](Cc1ccc(O)cc1)NC(=O)[C@@H]1CC=CC[C@H](N)C(=O)N[C@@H](CCCCN)C(=O)N[C@@H](CCCCN)C(=O)N1)C(=O)O (stereo partly shown) [compound 14, c[G(All)KKG(All)]YI] (H-[AllylGly]KK[AllylGly]Y[Ile(3ξ)]-OH; staple 1-4)
10

* * *

- Target Entity: hNTS2 receptor (Homo sapiens)
- Construct: membranes prepared from them
- Measurement Description: Competitive radioligand binding assay on the hNTS2 receptor
- Details: ratio IC50 for NTS1 : IC50 for NTS2
Where a SMILES comes first, the peptide text is derived from it. Bridges are numbered along the chain shown (N, C = ends). [ ]: non-standard residue; d: D form. Phe(4-CF3) = N[C@@H](Cc1ccc(C(F)(F)F)cc1)C(=O)O; 2Thi = N[C@@H](Cc1cccs1)C(=O)O; AllylGly = C=CC[C@H](N)C(=O)O; Tle = CC(C)(C)[C@H](N)C(=O)O; Dab = NCC[C@H](N)C(=O)O
Attribute Measured: Selectivity

// below: answered compounds
| Compound | Selectivity |
| --- | --- |
| CC(C)C[C@H](NC(=O)[C@H](CCCCN)NC(=O)[C@@H]1CC=CC[C@H](N)C(=O)N[C@@H](CCCCN)C(=O)N[C@@H](CCCCN)C(=O)N1)C(=O)O [compound 17, c[G(All)KKG(All)]KL] (H-[AllylGly]KK[AllylGly]KL-OH; staple 1-4) | 90.9 |
| CC(C)C[C@H](NC(=O)[C@H](Cc1ccc(C(F)(F)F)cc1)NC(=O)[C@@H]1CC=CC[C@H](N)C(=O)N[C@@H](CCCCN)C(=O)N[C@@H](CCCCN)C(=O)N1)C(=O)O [compound 111, c[G(All)KKG(All)]F(4-CF3)L] (H-[AllylGly]KK[AllylGly][Phe(4-CF3)]L-OH; staple 1-4) | >2087 |
| CC(C)C[C@H](NC(=O)[C@H](Cc1ccc(O)cc1)NC(=O)C1(C)CC=CCCC[C@H](N)C(=O)N[C@@H](CCCCN)C(=O)N[C@@H](CCCCN)C(=O)N1)C(=O)O (single isomer, unassigned) [compound 92, c[G(All)KKG*(alpha-Me-(4-Pentenyl))]YL] | >196 |
| CC(C)C[C@H](NC(=O)[C@H](Cc1ccc(O)cc1)NC(=O)[C@@H]1CC=CC[C@H](N)C(=O)N[C@@H](CCN)C(=O)N[C@@H](CCCCN)C(=O)N1)C(=O)O [compound 80, c[G(All)DabKG(All)]YL] (H-[AllylGly][Dab]K[AllylGly]YL-OH; staple 1-4) | >729 |

Provide Selectivity values for the following items, in order.
1. CC(C)C[C@H](NC(=O)[C@H](Cc1cccs1)NC(=O)[C@@H]1CC=CC[C@H](N)C(=O)N[C@@H](CCCCN)C(=O)N[C@@H](CCCCN)C(=O)N1)C(=O)O [compound 159, c[G(All)KKG(All)]A(2-thienyl)L] (H-[AllylGly]KK[AllylGly][2Thi]L-OH; staple 1-4)
2. CC(C)(C)[C@H](NC(=O)[C@H](Cc1ccc(O)cc1)NC(=O)[C@@H]1CC=CC[C@H](N)C(=O)N[C@@H](CCCCN)C(=O)N[C@@H](CCCCN)C(=O)N1)C(=O)O [compound 27, c[G(All)KKG(All)]YTle] (H-[AllylGly]KK[AllylGly]Y[Tle]-OH; staple 1-4)
3. CC(C)C[C@H](NC(=O)[C@H](Cc1ccc(O)cc1)NC(=O)[C@@H]1CC=CC[C@H](N)C(=O)N[C@@H](CCCCN)C(=O)N[C@@H](CCN)C(=O)N1)C(=O)O [compound 52, c[G(All)KDabG(All)]YL] (H-[AllylGly]K[Dab][AllylGly]YL-OH; staple 1-4)

1: 1112; 2: >1.3; 3: >409.3
